assay: protein stability index of a GFP-peptide fusion (yeast GPS) (PSI 1-4); higher = more stable; sorted into four equal gates, so the index is relative within each strain; conditions: doa10∆
MEASURED ATTRIBUTE: protein stability index
Give the value as a plain number.

**Query** Request the reported protein stability index associated with DFTQEDELRKQELISKA [ISW2]
**Result** 3.11

**Query** Looking for the measured protein stability index of GGSATARHKKKVENLDY [YML031W/NDC1] , can you help?
**Result** 3.4

**Query** Would you kindly share the measured protein stability index for NTSSLQSFQNPFTASQS [YIL149C/MLP2] ?
**Result** 2.36

**Query** Fill in: protein stability index of FNYVQECPAIPIFNYIF [YJL039C/NUP192] is ___
**Result** 1.9

**Query** Requested read-out: protein stability index. Entry: NISIITLELESFLEGSK [RGR1]
**Result** 2.44

**Query** Requested read-out: protein stability index. Entry: LERFNKRADISKRRITE [SMC1]
**Result** 3.14

**Query** // returns reported protein stability index for input ARTATVSKKWAAAGVCE [RPL14B]
**Result** 2.9

----------
assay: protein stability index of a GFP-peptide fusion (yeast GPS) (PSI 1-4); higher = more stable; sorted into four equal gates, so the index is relative within each strain; details: ubr1∆
Classification by protein stability index follows these ranges: low interval (below 2), middle interval (2 to below 3), high interval (3 or more)

Field: example entries. Status: answers known.
VITALKEPPRDRKKDKN [RPL12A] :: low interval
FLPFNNSASNNGNLTSN [SWI1] :: middle interval
DDRVDKKFVSQIQKNVD [POP3] :: high interval
APLKALVQEQVREFQRR [BRR2] :: low interval
SHILNSHSLALNEITNS [DSN1] :: middle interval

**Query** Would you mind sorting NLTYYNEKLECISLGST [ITC1] into the appropriate category?
**Result** middle interval

**Query** Band for ALSAYHKVQTKLTRELE [RPS7B] ?
**Result** middle interval

**Query** Bin? EHFLKLNIDFGSDKQMF [YML103C/NUP188]
**Result** high interval

**Query** The entry to classify is LQYANNAVISHANAAAV [SIN4] ; which class holds it?
**Result** low interval

**Query** Assign a category based on measured protein stability index for RNVTKGDIVRMLETAGF [SMC3] and give only the class name.
**Result** high interval

**Query** Returns: class label. Input: QAYQFLNTFGSKICLSH [ITC1]
**Result** low interval

**Query** For YLGEGPRMVRDVFRLAR [RPT3] , which protein stability index bin applies?
**Result** middle interval

**Query** Determine which band this sequence sits in: SKLRNNIRSQLLSENRS [SRP54]
**Result** middle interval

----------
test: protein stability index of a GFP-peptide fusion (yeast GPS) (PSI 1-4); higher = more stable; sorted into four equal gates, so the index is relative within each strain; details: pdr5∆
MEASURED ATTRIBUTE: protein stability index
No unit in the answer, only the number.

**Query** Quick one: protein stability index of TMADAVRELGILCIFEG [SEC65] ?
**Result** 2.05

----------
experiment: protein stability index of a GFP-peptide fusion (yeast GPS) (PSI 1-4); higher = more stable; sorted into four equal gates, so the index is relative within each strain; conditions: san1∆
MEASURED ATTRIBUTE: protein stability index
Response field accepts a number only; no unit should be typed.

PRFNRENKVSPADAAKK [RPS26A] :: 2.98

**Query** Request the reported protein stability index associated with DYVTNPDTKISSAAILG [RPN1]
**Result** 2.21

**Query** Look up protein stability index for this sequence: GSIPVDQVVVRGIDTLQ [RPB3]
**Result** 1.89

**Query** # get_value(readout='protein stability index', item= NATANATANATANATAE [SNF11] )
**Result** 3.18
